test: Cytotoxicity against MDCK cells assessed as reduction in cell viability after 24 to 72 hrs by MTT assay; details: dog
assay-readout: CC50 (mM)
Give bare numbers, in mM.

Consider the compound COc1ccc2cc([C@H](C)C(=O)O)ccc2c1 [NAPROXEN] . State its measured CC50.
1.4

###

assay: Safety index, ratio of compound CC50 to naproxen CC50 for MDCK cells by MTT assay; assay type: ADME, cell-based, Canis lupus familiaris; settings: dog
Could you please report measured selectivity ratio for the items listed next?

INSERT INTO measurements (given_smiles, assay_readout, value_measured) VALUES
  ('COc1ccc2cc(-c3c(C(=O)[O-])cccc3C(=O)[O-])ccc2c1.[Na+].[Na+]', 'selectivity ratio', 10),
  ('COc1ccc2cc(-c3c(C(=O)[O-])ccc(Oc4ccc(N)cc4)c3C(=O)[O-])ccc2c1.[Na+].[Na+]', 'selectivity ratio', 10);

Here is the next item to consider.
Please report selectivity ratio for the following compound: COc1ccc2cc(-c3c(C(=O)O)cc(Oc4ccc(N)cc4)cc3C(=O)O)ccc2c1
10

###

Please respond with reported pIC50 for every item in the list.
test system: Influenza A virus; experiment: Antiviral activity against pandemic Influenza A virus (A/Netherlands/602/09(H1N1)) infected in MDCK cells at MOI of 10^-3 assessed as decrease in viral load after 18 hrs by immunofluorescence analysis; assay type: functional, organism-based
Answers are plain numbers, as −log10 of the molar value.

INSERT INTO assay_data (given_smiles, value_measured) VALUES
  ('COc1ccc2cc(-c3c(C(=O)O)cc(Oc4ccc(N)cc4)cc3C(=O)O)ccc2c1', 4.68),
  ('COc1ccc2cc(-c3c(C(=O)[O-])ccc(Oc4ccc(N)cc4)c3C(=O)[O-])ccc2c1.[Na+].[Na+]', 6.15);

Item COc1ccc2cc(-c3c(C(=O)[O-])cccc3C(=O)[O-])ccc2c1.[Na+].[Na+] : provide pIC50
5.74

###

test system: Influenza A virus; assay: Stabilization of Influenza A virus nucleoprotein assessed as melting temperature at 5 to 15 uM measured for 10 mins
Answer each item with its documented Tm.
One number for each entry, in °C.

INSERT INTO results (compound, measurement_target, value_measured) VALUES
  ('COc1ccc2cc(-c3c(C(=O)[O-])ccc(Oc4ccc(N)cc4)c3C(=O)[O-])ccc2c1.[Na+].[Na+]', 'Influenza A virus', 48);

Record Tm for all entries; do not skip any.
1. COc1ccc2cc(-c3c(C(=O)[O-])cccc3C(=O)[O-])ccc2c1.[Na+].[Na+]
2. COc1ccc2cc([C@H](C)C(=O)O)ccc2c1 [NAPROXEN]

1. 46
2. 41

###

assay: Selectivity index, ratio of CC50 for human A549 cells to IC50 for Influenza A virus (A/Udorn/1972 (H3N2)) after 18 hrs; assay type: toxicity; settings: read-out: Ratio CC50/IC50
assay-readout: selectivity ratio at 18 h
One number for each entry.

Past entries and their recorded results:
INSERT INTO assay_data (given_smiles, value_measured) VALUES
  ('COc1ccc2cc(-c3c(C(=O)[O-])ccc(Oc4ccc(N)cc4)c3C(=O)[O-])ccc2c1.[Na+].[Na+]', 706),
  ('COc1ccc2cc(-c3c(C(=O)[O-])cccc3C(=O)[O-])ccc2c1.[Na+].[Na+]', 520);

Query selectivity ratio at 18 h for COc1ccc2cc([C@H](C)C(=O)O)ccc2c1
12.5

###

biological target: PA/PB1 (Influenza A virus (A/Puerto Rico/8/1934(H1N1)), UniProt P03431+P03433); test: Binding affinity to biotin labelled Influenza A virus polymerase acidic protein (1 to 27 residues) by surface plasmon resonance analysis
assay-readout: Ki (µM)
Give bare numbers, in µM.

Give the reported Ki for this molecule. COc1ccc2cc(-c3c(C(=O)[O-])cccc3C(=O)[O-])ccc2c1.[Na+].[Na+]
30

###

test: Selectivity index, ratio of CC50 for MDCK cells to IC50 for Influenza A virus (A/WSN/1933(H1N1)) infected in MDCK cells at MOI of 2 after 18 hrs; assay type: toxicity, cell-based; conditions: dog, read-out: Ratio CC50/IC50
assay-readout: selectivity ratio at 18 h
One number for each entry.

INSERT INTO assay_data (given_smiles, assay_readout, value_measured) VALUES
  ('COc1ccc2cc(-c3c(C(=O)[O-])cccc3C(=O)[O-])ccc2c1.[Na+].[Na+]', 'selectivity ratio at 18 h', 684);

Hi! Can you tell me selectivity ratio at 18 h for each of these molecules?
1. COc1ccc2cc([C@H](C)C(=O)O)ccc2c1
2. COc1ccc2cc(-c3c(C(=O)[O-])ccc(Oc4ccc(N)cc4)c3C(=O)[O-])ccc2c1.[Na+].[Na+]

1. 14
2. 923

###

Consider the following compounds; for each one, report its selectivity ratio at 18 h.
assay: Selectivity index, ratio of CC50 for MDCK cells to IC50 for Influenza A virus (A/Udorn/1972 (H3N2)) infected in MDCK cells at MOI of 2 after 18 hrs; type: toxicity, cell-based; settings: dog, read-out: Ratio CC50/IC50

These recorded examples may help you get a feel for the data.
INSERT INTO measurements (given_smiles, value_measured) VALUES
  ('COc1ccc2cc(-c3c(C(=O)[O-])ccc(Oc4ccc(N)cc4)c3C(=O)[O-])ccc2c1.[Na+].[Na+]', 923),
  ('COc1ccc2cc([C@H](C)C(=O)O)ccc2c1', 12);

Give selectivity ratio at 18 h for COc1ccc2cc(-c3c(C(=O)[O-])cccc3C(=O)[O-])ccc2c1.[Na+].[Na+]
650
